// data source = PubChem BioAssay (EPA / NIEHS)

target: Estrogen receptor (Homo sapiens) + Estrogen receptor beta (Homo sapiens) (UniProt P03372+Q92731); assay: OT_ER_ERaERb_1440: Odyssey Thera (OT) 24-hour HEK293T Protein-Complementation Assay for Estrogen Receptor-alpha/-beta Homodimer (AID 2283356);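 further: heteromer of ER alpha and ER beta binding domains; hits raise reporter fluorescence and both agonists and antagonists give an increase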
Sequence (P03372 whole entry, looked up, the tested form may be a part): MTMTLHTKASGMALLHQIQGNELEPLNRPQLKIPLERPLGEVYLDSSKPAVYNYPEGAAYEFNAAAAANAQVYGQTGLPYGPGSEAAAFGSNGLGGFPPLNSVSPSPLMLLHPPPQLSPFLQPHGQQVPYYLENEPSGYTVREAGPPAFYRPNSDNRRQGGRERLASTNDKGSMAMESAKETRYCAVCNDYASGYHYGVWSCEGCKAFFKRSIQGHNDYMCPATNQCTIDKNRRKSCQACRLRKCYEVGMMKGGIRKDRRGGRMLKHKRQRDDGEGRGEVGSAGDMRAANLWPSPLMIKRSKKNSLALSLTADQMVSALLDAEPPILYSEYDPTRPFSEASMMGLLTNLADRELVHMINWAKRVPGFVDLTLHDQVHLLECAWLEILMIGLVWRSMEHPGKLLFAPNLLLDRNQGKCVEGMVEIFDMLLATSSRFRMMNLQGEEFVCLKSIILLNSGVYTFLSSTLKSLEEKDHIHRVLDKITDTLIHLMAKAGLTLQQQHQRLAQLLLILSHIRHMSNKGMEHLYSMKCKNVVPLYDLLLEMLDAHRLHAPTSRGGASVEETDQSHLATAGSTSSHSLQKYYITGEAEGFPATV
Sequence (Q92731 whole entry, looked up, the tested form may be a part): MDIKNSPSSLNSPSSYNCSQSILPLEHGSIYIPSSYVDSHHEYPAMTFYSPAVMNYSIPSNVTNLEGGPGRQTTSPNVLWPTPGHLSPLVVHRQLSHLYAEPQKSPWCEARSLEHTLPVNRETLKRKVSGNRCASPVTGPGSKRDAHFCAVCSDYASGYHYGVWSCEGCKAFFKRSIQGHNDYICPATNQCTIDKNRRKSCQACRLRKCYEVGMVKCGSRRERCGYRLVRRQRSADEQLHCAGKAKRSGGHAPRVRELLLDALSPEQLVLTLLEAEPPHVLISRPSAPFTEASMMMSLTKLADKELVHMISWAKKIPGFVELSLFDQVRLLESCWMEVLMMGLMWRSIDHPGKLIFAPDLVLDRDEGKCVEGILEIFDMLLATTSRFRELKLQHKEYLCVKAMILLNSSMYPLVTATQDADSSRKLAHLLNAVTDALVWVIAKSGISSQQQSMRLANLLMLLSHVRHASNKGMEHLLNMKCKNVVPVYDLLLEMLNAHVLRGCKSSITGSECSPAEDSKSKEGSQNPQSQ
Results filed as inconclusive are left out. Calls of active or inactive are those of the source. How the source made its calls: active means hit-call score of the fitted dose curve at least 0.9, where 1 is the maximum; inconclusive means response in the unintended direction; inactive means score below 0.9.
Choose one outcome from this list and give only that: active, inactive

Outcome? CC=C1CC2C=CC1C2 (configuration not stated)
inactive

Also, CC(C)=CCC[C@H](C)CCO please.
inactive

Also, CCCCC(CC)CCC(CC(C)C)OS(=O)(=O)O (configuration not stated) please.
inactive

Also, O=S1(=O)OC(c2ccc(O)cc2)(c2ccc(O)cc2)c2ccccc21 please.
inactive

Also, Cc1cc(C)c(C(=O)O)c(C)c1 please.
inactive

Also, Cn1c([N+](=O)[O-])cnc1COC(N)=O please.
inactive

Also, CN(C)c1ccc(N=Nc2ccccc2C(=O)O)cc1 please.
inactive

Also, CO[Si](OC)(OC)c1ccccc1 please.
inactive

Also, O=C(C(Cl)Cl)N1CCOC12CCCCC2 please.
inactive

Also, O=S(=O)(O)c1ccccc1C=Cc1ccc(-c2ccc(C=Cc3ccccc3S(=O)(=O)O)cc2)cc1 please.
inactive

Also, CC(=O)[C@H]1[C@H](C#N)C[C@H]2[C@@H]3CC=C4C[C@@H](O)CC[C@]4(C)[C@H]3CC[C@@]21C please.
inactive

Also, CN(C)c1ccc(C(=N)c2ccc(N(C)C)cc2)cc1 please.
active

Also, CCCCCCCC/C=C\CCCCCCCC(=O)OCCO please.
inactive

Also, O=C(c1ccccc1)C1CCC1 please.
inactive

Also, CNC(=S)NN please.
inactive

Also, CC1=NN(c2cc(S(=O)(=O)O)ccc2Cl)C(=O)C1N=Nc1ccccc1 (configuration not stated) please.
inactive

Also, NC(=O)c1ccccc1O please.
inactive

---

molecular target: Nuclear receptor subfamily 1 group I member 2 (Homo sapiens) (UniProt O75469); assay: ATG_PXR_TRANS: Attagene TRANS-FACTORIAL HepG2 Assay for human Pregnane X Receptor (PXR) (AID 2283008)
Sequence (O75469 whole entry, looked up): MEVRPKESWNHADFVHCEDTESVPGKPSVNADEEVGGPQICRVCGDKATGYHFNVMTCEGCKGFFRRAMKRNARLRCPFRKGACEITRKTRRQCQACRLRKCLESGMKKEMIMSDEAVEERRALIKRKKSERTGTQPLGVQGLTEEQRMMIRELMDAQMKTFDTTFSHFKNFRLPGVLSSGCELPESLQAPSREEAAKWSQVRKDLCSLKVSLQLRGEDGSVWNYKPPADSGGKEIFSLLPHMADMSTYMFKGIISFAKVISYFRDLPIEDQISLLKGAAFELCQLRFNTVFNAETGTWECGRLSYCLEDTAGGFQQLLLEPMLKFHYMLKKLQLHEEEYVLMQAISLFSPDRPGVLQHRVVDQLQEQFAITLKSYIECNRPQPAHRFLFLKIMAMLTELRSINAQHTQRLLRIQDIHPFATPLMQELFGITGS
Records with an inconclusive call do not appear. Active and inactive are the calls of the source. Rule for the calls: active = hit-call score of the fitted dose curve at least 0.9, where 1 is the maximum; inconclusive = response in the unintended direction; inactive = score below 0.9.
Choose one outcome from this list and give only that: active, inactive

Outcome? O=S1(=O)OC(c2ccc(O)cc2)(c2ccc(O)cc2)c2ccccc21
inactive

Also, CC(=O)OCC(C)OC(C)=O (stereo not drawn) please.
inactive

Also, COC(=O)c1c(C)cc(O)c(C)c1O please.
inactive

Also, CCOc1ccc(N)c([N+](=O)[O-])c1 please.
inactive

Also, CC(C)(C)c1ccc(N)cc1 please.
inactive

Also, COc1ccc(-c2coc3cc(O)ccc3c2=O)cc1 please.
inactive

Also, CCCCCc1ccc(Cl)cc1 please.
inactive

Also, C[Si](C)O[Si](C)(C)O[Si](C)(C)O[Si](C)C please.
inactive

Also, O=C1CCCN1CCO please.
inactive

Also, C1=Cc2ccccc2C1 please.
active

Also, COCCOCCOCCOCCOC please.
inactive

Also, COc1ccc2nc(N)sc2c1 please.
inactive

Also, COc1cc(C)ccc1C(C)C please.
inactive

Also, COC(=O)c1sccc1S(N)(=O)=O please.
inactive

Also, C=C[Si](OC(C)=O)(OC(C)=O)OC(C)=O please.
active

Also, CC(=O)c1ccc2c(c1)CCCC2 please.
inactive

Also, CC1=CC[C@H](C(C)C)C=C1 please.
active

Also, CCc1nccnc1C please.
inactive

Also, CCc1c(C(=O)O)c(=O)cnn1-c1ccc(Cl)cc1 please.
inactive

Also, CCOC(=O)c1ccccc1C(=C1C=C(Br)C(=O)C(Br)=C1)c1cc(Br)c(O)c(Br)c1 please.
inactive

Also, CCO[Si](C)(OCC)OCC please.
inactive

Also, C=CC=CC=CCCCCC please.
active

Also, O=C(c1ccc(O)cc1)c1ccc(O)cc1O please.
inactive

Also, CCCCCCCCCCOS(=O)(=O)O please.
inactive

Also, CC1OC1C1CCC2(C)OC2C1 (stereo not drawn) please.
active

Also, c1ccc(-c2ccccn2)nc1 please.
inactive

Also, Nc1ccc(N)c(Cl)c1 please.
active

Also, CC(C)CC(O)Cc1ccccc1 (stereo not drawn) please.
inactive

---

read-out: Collagen I, COL1A1 (gene 1277); experiment: BSK_MyoF_CollagenI: BioMAP Diversity Plus: MyoF Assay for Collagen I Biomarker Activity (AID 2284238); details: primary human lung fibroblasts
Calls of active or inactive are those of the source. How the source made its calls: active means hit-call score of the fitted dose curve at least 0.9, where 1 is the maximum; inactive means score below 0.9.
Choose one outcome from this list and give only that: active, inactive

Outcome? C=CC=CC=CCCCCC
inactive

Also, C=CC(=O)OCC(Br)CBr (centres undefined) please.
active

Also, CCOc1nc(F)cc2nc(S(=O)(=O)Nc3c(Cl)cccc3C(=O)OC)nn12 please.
inactive

Also, CCCCNc1ccc(NCCCC)c2c1C(=O)c1ccccc1C2=O please.
inactive

Also, CC1OC1C1CCC2(C)OC2C1 (centres undefined) please.
inactive

Also, C=CCOc1c(Br)cc(Br)cc1Br please.
active

Also, C=CCOCC(O)CCl (centres undefined) please.
inactive

Also, C#CC1(O)CC[C@H]2[C@@H]3CCC4=CCCC[C@@H]4[C@H]3CC[C@@]21C (some centres undefined) please.
active

Also, O=C(Nc1ccccc1SSc1ccccc1NC(=O)c1ccccc1)c1ccccc1 please.
inactive

---

assay: ATG_E_Box_CIS: Attagene CIS-FACTORIAL HepG2 Assay for human Enhancer Box (E-box) (AID 2282936); settings: HepG2 E-box cis-reporter transcription, actives raise or lower the signal
Activity calls are given as the source filed them. How the source made its calls: active means hit-call score of the fitted dose curve at least 0.9, where 1 is the maximum; inactive means score below 0.9.
Choose one outcome from this list and give only that: True (active), False (inactive)

Outcome? C=CCCCCCCCCC(=O)OCCCC
False

Also, O=CN1CCCCC1 please.
False

Also, C(=CC=Nc1ccccc1)C=CNc1ccccc1 please.
False

Also, O=C1C(N(CO)C(=O)NCO)N(CO)C(=O)N1CO (stereo not given) please.
False

Also, CO[Si](OC)(OC)c1ccccc1 please.
False

Also, C=C(C)[C@@H]1CCC2=CCC[C@@H](C)[C@]2(C)C1 please.
False

Also, CC(C)c1ccc(C#N)cc1 please.
False

Also, OC1CCCCCCCCCCC1 please.
False

Also, CCCCCCOc1cc(C)c(O)c(C)c1C please.
False

Also, O=C(Nc1ccccc1)c1ccccc1O please.
False

Also, CC(C)=CCC[C@H](C)CCO please.
False

Also, CCCOC(=O)CCCCC(=O)OCCC please.
False

Also, CCOC(=O)c1ccc(N(C)C)cc1 please.
False

Also, COC(=O)/C=C\C(=O)O please.
False

Also, COc1ccc(C(Cl)=C(c2ccc(OC)cc2)c2ccc(OC)cc2)cc1 please.
True

Also, CCCCCCCC[N+](C)(CCCCCCCC)CCCCCCCC please.
False

Also, CC(C)=CCC/C(C)=C\C#N please.
False

Also, COCC(C)N (stereo not given) please.
False

Also, c1ccc(CNCc2ccccc2)cc1 please.
False

Also, O=P(O)(O)Oc1ccccc1 please.
False

Also, CC=C1CC2C=CC1C2 (stereo not given) please.
False

Also, CC(C)=CC1CC(C)CCO1 (stereo not given) please.
False

Also, CC(=O)c1ccc[nH]1 please.
False

Also, O=c1cc[nH]c(=S)[nH]1 please.
False

Also, Cc1ccc(C(C)(C)C)cc1 please.
False

Also, OC1OCCOC1O (stereo not given) please.
False

Also, Cc1ccc(OC(=O)CC(C)C)cc1 please.
False

Also, O=C(O)CCCC[C@@H]1SC[C@@H]2NC(=O)N[C@@H]21 please.
False

Also, NC(=O)c1ccccc1O please.
False

Also, CCCc1ccc(OC)cc1 please.
False

Also, Cc1cc(O)c(Cl)c(C)c1Cl please.
False

Also, O=C1c2ccccc2C(=O)C1c1nc2ccccc2c(Br)c1O please.
False

Also, CCOC(=O)Cc1cccc2ccccc12 please.
False

Also, CCCCCCCCCCc1ccccc1 please.
False

Also, COc1ccc(-c2coc3cc(O)ccc3c2=O)cc1 please.
False

Also, CCCCC(CC)COC(=O)c1ccccc1 (stereo not given) please.
False

Also, CC(C)CC(O)Cc1ccccc1 (stereo not given) please.
False

Also, OCCN(CCO)c1ccccc1 please.
False

Also, O=C(O)Cc1c(Cl)ccc(Cl)c1Cl please.
False

Also, C1=CCCC1 please.
False

---

read-out: Monocyte Chemoattractant Protein-1 (MCP1), CCL2 (gene 6347); experiment: BSK_3C_MCP1: BioMAP Diversity Plus: 3C Assay for Monocyte Chemoattractant Protein-1 (MCP1) Biomarker Activity (AID 2283017); settings: primary human endothelial cells (HUVEC); actives raise or lower the signal
Calls of active or inactive are those of the source. The calls were made as follows: active = hit-call score of the fitted dose curve at least 0.9, where 1 is the maximum; inactive = score below 0.9.
Choose one outcome from this list and give only that: Y (active), N (inactive)

Outcome? CC(C)C(=O)C(C)C
N

Also, N#[N+]c1ccc2c(S(=O)(=O)[O-])cccc2c1O please.
N

Also, c1ccc(-c2ccccn2)nc1 please.
N

Also, C=CCOCC(O)CCl (configuration not stated) please.
N

Also, CC(C)(c1cc(Br)c(OCCO)c(Br)c1)c1cc(Br)c(OCCO)c(Br)c1 please.
Y

Also, CCO[Si](CCCN=C=O)(OCC)OCC please.
N

Also, C=CCOc1c(Br)cc(Br)cc1Br please.
Y
